# assay system: Glutamate NMDA receptor
# procedure summary: Affinity for the glycine binding site on rat N-methyl-D-aspartate glutamate receptor 1, determined by displacement of the glycine site antagonist [3H]L-689,560 from rat cortical membranes
I'd appreciate it if you could supply IC50 values for the items below.
Answers are plain numbers, in nM.

Below are some compounds; for each one, tell me its IC50.
1. Oc1nc2cc(Cl)ccc2c(O)c1-c1cccc(Cc2ccc(CCN3CCOCC3)cc2)c1
2. CNCc1ccc(Cc2cccc(-c3c(O)nc4cc(Cl)ccc4c3O)c2)cc1
3. COc1ccc(CCOc2c(I)cc(C[C@@H](N)C(=O)O)cc2I)cc1
4. O=C(/C=C/c1c(C(=O)O)[nH]c2cc(Cl)cc(Cl)c12)Nc1ccccc1

9
124
545
1

// IC50 lookup, key: `N[C@H](Cc1cc(I)c(OCCc2ccc(O)cc2)c(I)c1)C(=O)O`
426

----------
# assay system: Glutamate NMDA receptor (Rattus norvegicus) (UniProt P35439+Q00959+Q00960+Q00961+Q62645+Q8VHN2+Q9R1M7)
# procedure summary: Protein binding index(PBI) reflects the relative displacement of [3H]glycine from rat cortical membranes in the presence and absence of 0.2% human serum albumin
# Type: cell membranes
# condition notes: Membrane
Labels assigned by PBI range: low: < 8; moderate: ≥ 8 and < 40; high: ≥ 40

Check out these entries, answers already filled in.
Bin? `Oc1nc2cc(Cl)ccc2c2oc3ccccc3c12`
moderate

Bin? `NCc1ccc(CC(=O)N[C@H]2C[C@H](C(=O)O)Nc3cc(Cl)cc(Cl)c32)cc1`
low

Bin? `COc1ccc(Cc2cccc(-c3c(O)c4ccc(Cl)cc4[nH]c3=O)c2)cc1`
high

Bin? `O=C(O)c1cc(O)c2c(Cl)cc(Cl)cc2n1`
moderate

Bin? `O=c1[nH]c2cc(Cl)ccc2c(O)c1-c1cccc(Oc2ccccc2)c1`
high

Bin? `Oc1nc2cc(Cl)ccc2c(O)c1-c1cccc(Oc2ccsc2)c1`
high

Bin? `Oc1nc2ccccc2c(O)c1-c1ccccc1`
low

Bin? `CC/C=C1\NC(=O)C(c2cccc(Oc3ccccc3)c2)=C1O`
moderate

More entries:
Bin? `COc1ccc(CCOc2c(I)cc(C[C@@H](N)C(=O)O)cc2I)cc1`
moderate

Bin? `Nc1c(-c2ccccc2)c(O)nc2cc(Cl)ccc12`
low

Bin? `Oc1nc2cc(Cl)ccc2c(O)c1-c1cccc(Cc2ccccc2)c1`
high

Bin? `COC(=O)c1c(O)c2ccc(Cl)cc2[nH]c1=O`
low

----------
# procedure summary: Partition coefficient (logP)
# Type: physicochemical
# condition notes: octanol/water
Rule: logP of 3 or more gives label 1; anything lower gives label 0.

In plain terms: is recorded logP at least 3 for `O=C(O)c1cc(O)c2ccc(Cl)cc2n1` ?
label 0

Turning to the following compound.
In plain terms: is recorded logP at least 3 for `O=c1[nH]c2cc(Cl)ccc2c(O)c1-c1cccc(Cc2ccccc2)c1` ?
label 0

----------
# assay system: Glutamate NMDA receptor
# procedure summary: Affinity for the glycine binding site on rat N-methyl-D-aspartate glutamate receptor 1, determined by displacement of the glycine site antagonist [3H]L-689,560 from rat cortical membranes
I'd appreciate it if you could supply pIC50 values for the items below.
Give bare numbers, as −log10 of the molar value.

// pIC50 lookup, key: `Nc1c(-c2ccccc2)c(=O)[nH]c2cc(Cl)ccc12`
5.17

Below are some compounds; for each one, tell me its pIC50.
1. CC/C=C1\NC(=O)C(c2cccc(Oc3ccccc3)c2)=C1O
2. Cc1ccccc1Oc1cccc(-c2c(O)nc3cc(Cl)ccc3c2O)c1

1. 6.16
2. 8.89
